- TARGET_UNDER_TEST: T1, hBCMA (human BCMA) (Homo sapiens, UniProt Q02223)
- T1 sequence (Q02223 1-184): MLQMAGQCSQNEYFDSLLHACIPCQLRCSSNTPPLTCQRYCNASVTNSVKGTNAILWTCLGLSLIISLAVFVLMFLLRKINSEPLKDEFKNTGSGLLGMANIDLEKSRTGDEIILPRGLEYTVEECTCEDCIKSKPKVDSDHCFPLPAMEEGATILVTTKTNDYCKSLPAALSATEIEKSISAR
- ASSAY: Kinetics and affinity of hBCMA/human IgG interactions by SPR (Bio-Rad Proteon XPR36)
- Assay type: binding
- COND: human BCMA, 37° C.
- Procedure: All experiments were performed on a Bio-Rad Proteon XPR36 surface Plasmon resonance biosensor (Bio-Rad, Hercules, Calif.). […] The analysis temperature for the hBCMA binding analysis was 37° C. or 25° C. in a running buffer of HBS-T+, supplemented with 1 mg/mL BSA. […] Immediately after the 50 nM hBCMA injection, dissociation was monitored for 2 hours. […]
Parameter ka Human: see the listing below.
ATTRIBUTE_MEASURED: ka Human (M⁻¹ s⁻¹)

P5A2_VHVL: anti-BCMA antibody (antibody, V domains shown) VH: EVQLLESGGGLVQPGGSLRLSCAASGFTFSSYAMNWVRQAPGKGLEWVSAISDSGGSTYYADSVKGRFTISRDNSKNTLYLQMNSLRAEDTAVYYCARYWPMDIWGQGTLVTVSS VL: EIVLTQSPGTLSLSPGERATLSCRASQSVSSSYLAWYQQKPGQAPRLLMYDASIRATGIPDRFSGSGSGTDFTLTISRLEPEDFAVYYCQQYGSWPLTFGQGTKVEIK = 6.96e+06
COMBO_Rd4_0.6 nM_C09: anti-BCMA antibody (antibody, V domains shown) VH: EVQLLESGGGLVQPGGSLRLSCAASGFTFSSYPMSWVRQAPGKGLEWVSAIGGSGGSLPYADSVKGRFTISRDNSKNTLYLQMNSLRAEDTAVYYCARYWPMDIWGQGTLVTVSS VL: EIVLTQSPGTLSLSPGERATLSCRASQSVSSTYLAWYQQKPGQAPRLLMYDASIRATGIPDRFSGSGSGTDFTLTISRLEPEDFAVYYCQQYQEWPLTFGQGTKVEIK = 1.04e+07
A02_Rd4_0.6 nM_C10: anti-BCMA antibody (antibody, V domains shown) VH: EVQLLESGGGLVQPGGSLRLSCAASGFTFSSYAMNWVRQAPGKGLEWVSAISGWGGSLPYADSVKGRFTISRDNSKNTLYLQMNSLRAEDTAVYYCARYWPMDSWGQGTLVTVSS VL: EIVLTQSPGTLSLSPGERATLSCRASQSVSAQYLAWYQQKPGQAPRLLMYDASIRATGIPDRFSGSGSGTDFTLTISRLEPEDFAVYYCQQYQRWPLTFGQGTKVEIK = 2.3e+06
